This collection of values is drawn from patent EP0486749A1.

- ASSAY_PROTOCOL: Solubility of the color former in oil (KMC-113)
- Type: physicochemical
- MEASUREMENT_SETUP: in KMC-113 at 50°C

>  <MOLECULE>
CCCCOC(=O)c1cc(N(C)C)ccc1C(c1ccc(N(C)C)cc1)c1ccc(N(C)C)cc1

>  <solubility>
at least 10%

$$$$
>  <MOLECULE>
CC(C)OC(=O)c1cc(N(C)C)ccc1C(c1ccc(N(C)C)cc1)c1ccc(N(C)C)cc1

>  <solubility>
at least 10%

$$$$
>  <MOLECULE>
COC(=O)c1cc(N(C)C)ccc1C(c1ccc(N(C)C)cc1)c1ccc(N(C)C)cc1

>  <solubility>
at least 10%

$$$$
>  <MOLECULE>
CN(C)c1ccc2c(c1)Sc1cc(N(C)C)ccc1N2C(=O)c1ccccc1 [benzoylleucomethylene blue, reference compound]

>  <solubility>
2.5%

$$$$
